assay: Quantitative High-Throughput drug screen in 47 multiple myeloma cell lines against the NCATS MIPE library collection: KMS12BM_JCRB cell viability assay (AID 1918971); conditions: KMS12BM myeloma viability, CellTiter-Glo ATP, 48 h; series mostly up to 45.8 µM; also: nearly all actives have a fitted effect of over 35% in size
Inconclusive results are not listed. Activity calls are given as the source filed them. Calls follow the shape of the dose curve; as a rule, active = well fitted cell-killing curve with a large enough effect; inconclusive = small, poorly fitted or top-dose-only effect, or effect the other way; inactive = no such curve, though single readings can be large or run the other way.
Classes used: 1 (yes) for active, 0 (no) for inactive

1) N#CCNC(=O)c1ccc(-c2ccnc(Nc3ccc(N4CCOCC4)cc3)n2)cc1: 1 (yes)
2) Cn1cncc1[C@@](N)(c1ccc(Cl)cc1)c1ccc2c(c1)c(-c1cccc(Cl)c1)cc(=O)n2C: 1 (yes)
3) NC1(Cc2ccc(Cl)cc2)CCN(c2ncnc3[nH]ccc23)CC1: 1 (yes)
4) Cc1ccc(C(N)=O)cc1Nc1nccc(-c2cn(C(C)C)c3cnccc23)n1: 1 (yes)
5) CC(C)(O)CCc1ccc(OCc2cc(-c3cccc(OC(F)F)c3)c3ncccc3c2)cc1: 0 (no)
6) O=C(C=Cc1c(C(=O)O)[nH]c2cc(Cl)cc(Cl)c12)Nc1ccccc1: 0 (no)
7) C=CC(=O)Nc1cc2c(Nc3ccc(F)c(Cl)c3)ncnc2cc1OCCCN1CCOCC1: 1 (yes)
8) CC(=O)SC[C@@H](C)C(=O)N1CCC[C@H]1C(=O)N[C@@H](Cc1ccccc1)C(=O)O: 0 (no)
9) COc1cc2nccc(Oc3ccc(NC(=O)C4(C(=O)Nc5ccc(F)cc5)CC4)cc3)c2cc1OC: 1 (yes)
10) CC(=O)c1c(C)c2cnc(Nc3ccc(N4CCNCC4)cn3)nc2n(C2CCCC2)c1=O: 1 (yes)
11) CN(C)CCCN=c1c2ccccc2n(C)c2[nH]c(=O)n(C)c(=O)c12: 1 (yes)
12) Clc1ccc2ncc(-c3cccc(NC4CNC4)n3)n2c1: 1 (yes)
13) COc1cccc(Nc2c(C(N)=O)cnc3c(C)cc(S(=O)(=O)c4cccc(C(=O)N(C)C)c4)cc23)c1: 0 (no)
14) Cn1c2ccccc2c2c3c(c4c5ccccc5n(CCC#N)c4c21)CNC3=O: 1 (yes)
15) O=C(Cc1ccc(-c2ccc(OCCN3CCOCC3)cc2)cn1)NCc1ccccc1: 1 (yes)
16) C[C@@]12O[C@@H](C[C@]1(O)CO)n1c3ccccc3c3c4c(c5c6ccccc6n2c5c31)CNC4=O: 1 (yes)
17) COc1cc(OC2CCN(C)CC2)ccc1Nc1ncc2c(n1)n(C1CCCC1)c(=O)n2C: 1 (yes)
